Catalogue of binders with associated pKd
tgt: T1, human transferrin receptor (hTfR) fused to EGFP, on CHO cells (human, UniProt P02786 1-760)
T1 construct: whole, on cells; also called human TfR; CHO-hTfR-EGFP; not shown: EGFP from pEGFP-C1 vector, fused to the N-terminal (intracellular) end of hTfR
test.name: apparent Kd, flow cytometry, CHO cells
pKd: −log10 of the molar value.
measured.quantity: pKd

1) B8^V14 (VHH) VHH: EVQLVESGGGVVQPGGSLRLSCAASGEIFSINFMRWYRQAPGKQREWVAGFTRLGSTNYPDSAKGRFTISRDNAKNTVYLQIDSLKPEDTAVYYCYMLDTWGQGTQVTVSS = 8.32
2) C5^h21 (VHH) VHH: EVQLVESGGGVVQPGGSLRLSCAASGTDFSINFIRWYRQAPGKGLEFVAGFTATGNTNYADSVKGRFTISRDNAKNTLYLQMNSLKPEDTAVYYCYMLDKWGQGTQVTVSS = 8.06
3) VHH A18 (C5^V18) (VHH) VHH: EVQLVESGGGVVQPGGSLKLSCVASGTDFSINFIRWYRQAPGKQREFVAGFTATGNTNYADSMKGRFTISRDNTKNAVYLQIDSLKPEDTAVYYCYMVDKWGQGTQVTVSS = 7.92
4) B8^V9 (VHH) VHH: EVQLVESGGGVVQPGGSLRLSCAASGEIFSINFMRWYRQAPGKQREWVAGFTRDGSKNYPDSAKGRFTISRDNAKNTVYLQIDSLKPEDTAVYYCYMLDTWGQGTQVTVSS = 8.55
